B1: glmS ribozyme (parent)
chain: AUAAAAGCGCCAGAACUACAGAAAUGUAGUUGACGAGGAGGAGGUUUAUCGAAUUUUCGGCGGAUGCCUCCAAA

Variants of: B1
TEST METHOD NOTES: kcat; higher = faster cleavage; RNA array
MEASUREMENT SETUP: with glucosamine-6-phosphate
This sample holds only a part of the variants without activity.
Exercise: state measured kcat for each of the variants provided.
Write it as a number; the unit s⁻¹ goes unstated.

Ask: What value of measured kcat is listed for G29A U54G ?
Reply: 0.00345

Ask: Looking for the measured kcat of G41C A52G , can you help?
Reply: 1.14e-05

Ask: kcat for A14G A15U G40U ?
Reply: 0.00322

Ask: Entry U30C U55G : reported kcat = ?
Reply: 0.00036

Ask: What value of measured kcat is listed for U30G A39C ?
Reply: 0.00157

Ask: Please give the measured kcat for this variant: A42C C70G
Reply: 4.99e-05

Ask: Return reported kcat; argument: A15C G29U
Reply: 0.00341

Ask: Report kcat for G9A please.
Reply: 3.95e-05

Ask: Please give the measured kcat for this variant: G40U U46C U47G
Reply: 2.86e-05

Ask: Fill in: kcat of G13U A15U is ___
Reply: 0.000299

Ask: Reported kcat for A12G A14G : what is it?
Reply: 0.00308

Ask: GET /values?readout=kcat&item= G44U U45A
Reply: 0.000658

Ask: Can you share its kcat? I mean this variant: A15G A42U
Reply: 0.000248

Ask: Fill blank: measured kcat of the variant G32C C71A is ____.
Reply: 1.79e-05

Ask: Find the recorded kcat belonging to G51A C61A and report it.
Reply: 1.66e-05

Ask: # input variant: G37A U47A ; wanted: its kcat
Reply: 0.00374

Ask: Name the reported kcat value associated with the variant C11A U31G
Reply: 0.000375

Ask: Request the reported kcat associated with G38A C58U C68G
Reply: 4.92e-05

Ask: So what's the measured kcat for this one? G66C C70A
Reply: 8.82e-05

Ask: Give the measured kcat of A15G U65C .
Reply: 0.000964

Ask: Fill blank: measured kcat of the variant A14U G29A is ____.
Reply: 0.00088

Ask: Would you mind telling me what kcat value was observed for G13A G32U ?
Reply: 0.000303

Ask: # kcat lookup, item G40C U47G
Reply: 0.000514

Ask: Please report the recorded kcat for A12U A48U .
Reply: 0.0014

Ask: Item U31A U65A has what recorded kcat?
Reply: 0.00266

Ask: What measured kcat goes with A14G G41U ?
Reply: 0.00179

Ask: Give the measured kcat of C16U G40C .
Reply: 0.00242

Ask: Which value of kcat has been reported for C58G in the records?
Reply: 0.000194

Ask: # get_value(readout='kcat', item= U30G G32A )
Reply: 0.00542

Ask: Can you share its kcat? I mean this variant: C50G G63C
Reply: 2.84e-05

Ask: What value of kcat has been recorded for this entry: G41A U46G C70U
Reply: 0.00726

Ask: Value lookup for kcat; key = G29U G37A
Reply: 0.000503

Ask: State the recorded kcat for this entry: U31A C58G
Reply: 0.000589

Ask: Sample G66U U69G — what was its kcat?
Reply: 3.26e-05

Ask: Look at this variant and give its reported kcat. A15U A52U
Reply: 0.000143

Ask: What does the record list as kcat for A39G C58G C71A ?
Reply: 2.19e-05

Ask: Consider the variant shown here: U65G C70A What is its recorded kcat?
Reply: 0.000185

Ask: I'd like to know its kcat. The variant in question is C16A G51A U56G C68G
Reply: 1.58e-05

Ask: Name the reported kcat value associated with the variant A53U C68G
Reply: 7.87e-05

Ask: Requested field: kcat. Item: A12G A52G A53G
Reply: 2.52e-05

Ask: Recorded kcat of U30C U54A , please.
Reply: 0.000514

Ask: Requested field: kcat. Item: C16A C61G
Reply: 1.13e-05

Ask: Request the reported kcat associated with U47A C71G
Reply: 0.000753

Ask: Given the entry U55G C70A , report its measured kcat.
Reply: 0.000145

Ask: What measured kcat goes with A12U G40C ?
Reply: 0.00584

Ask: What value of kcat has been reported for the following variant? A64U C67U
Reply: 5.93e-05

Ask: Which value of kcat has been reported for A33U C68U in the records?
Reply: 1.75e-05

Ask: Request the reported kcat associated with C34A G51U C67U
Reply: 0.000275

Ask: Consider the variant C34G U69A and give its measured kcat.
Reply: 3.79e-05

Ask: Suppose we examine the variant A6U U49A C71G ; what kcat value has been reported?
Reply: 3.45e-05

Ask: Which kcat reading was recorded for the variant A53G G59A ?
Reply: 0.000102

Ask: Requested field: kcat. Item: G38A C61A G66U U69C C70U
Reply: 4.44e-05

Ask: # query: kcat of entry U49A U55A
Reply: 3.61e-05

Ask: Tell me the measured kcat of C11A A12U U45G U55A C70U , please.
Reply: 0.00104

Ask: What value of kcat has been recorded for this entry: A15G A52C
Reply: 2.96e-05

Ask: # get_value(readout='kcat', item= U55C )
Reply: 0.0394

Ask: Which kcat is listed for U56G C70A ?
Reply: 4.56e-05

Ask: Entry G37C A64U C68G has what kcat?
Reply: 1.68e-05

Ask: I would be grateful if you could share the reported kcat for U30A C58A .
Reply: 0.000164

Ask: Endpoint output: kcat of U31G C71U . Value?
Reply: 0.0144

Ask: Quick one: kcat of G32U A53C ?
Reply: 0.000282

Ask: Value lookup for kcat; key = U46C C70G
Reply: 0.000447

Ask: Give its kcat value. Item: U46C U55G
Reply: 0.00362

Ask: What value of measured kcat is listed for A12C G66U ?
Reply: 0.00165

Ask: Given the entry U46A U69C , report its measured kcat.
Reply: 0.00197

Ask: # input variant: C50G G62C ; wanted: its kcat
Reply: 2.62e-05

Ask: Requested field: kcat. Item: A15U C70G
Reply: 7.6e-05

Ask: # get_value(readout='kcat', item= A15U A64G )
Reply: 0.00706

Ask: Need kcat, item A14G A52U
Reply: 0.000706

Ask: Any idea what kcat was measured for A33G U65A C70G ?
Reply: 4e-05

Ask: Consider the variant shown here: C11U U55C What is its recorded kcat?
Reply: 0.00286

Ask: Reported kcat for A42U U46G : what is it?
Reply: 5.79e-05

Ask: Using the record for A15U U49G , report its kcat.
Reply: 9.5e-05

Ask: Consider the variant G41U U65A and give its measured kcat.
Reply: 0.000223

Ask: // lookup kcat for C11A C70U
Reply: 0.000155

Ask: Requested field: kcat. Item: G13A U54A
Reply: 0.000832

Ask: Any idea what its kcat is? The variant is A52G U65A
Reply: 0.00041

Ask: Consider the variant U46G C71A and give its measured kcat.
Reply: 0.00159
